Tested Target: hSCN3A (Homo sapiens)
Sequence (Q9NY46 whole entry): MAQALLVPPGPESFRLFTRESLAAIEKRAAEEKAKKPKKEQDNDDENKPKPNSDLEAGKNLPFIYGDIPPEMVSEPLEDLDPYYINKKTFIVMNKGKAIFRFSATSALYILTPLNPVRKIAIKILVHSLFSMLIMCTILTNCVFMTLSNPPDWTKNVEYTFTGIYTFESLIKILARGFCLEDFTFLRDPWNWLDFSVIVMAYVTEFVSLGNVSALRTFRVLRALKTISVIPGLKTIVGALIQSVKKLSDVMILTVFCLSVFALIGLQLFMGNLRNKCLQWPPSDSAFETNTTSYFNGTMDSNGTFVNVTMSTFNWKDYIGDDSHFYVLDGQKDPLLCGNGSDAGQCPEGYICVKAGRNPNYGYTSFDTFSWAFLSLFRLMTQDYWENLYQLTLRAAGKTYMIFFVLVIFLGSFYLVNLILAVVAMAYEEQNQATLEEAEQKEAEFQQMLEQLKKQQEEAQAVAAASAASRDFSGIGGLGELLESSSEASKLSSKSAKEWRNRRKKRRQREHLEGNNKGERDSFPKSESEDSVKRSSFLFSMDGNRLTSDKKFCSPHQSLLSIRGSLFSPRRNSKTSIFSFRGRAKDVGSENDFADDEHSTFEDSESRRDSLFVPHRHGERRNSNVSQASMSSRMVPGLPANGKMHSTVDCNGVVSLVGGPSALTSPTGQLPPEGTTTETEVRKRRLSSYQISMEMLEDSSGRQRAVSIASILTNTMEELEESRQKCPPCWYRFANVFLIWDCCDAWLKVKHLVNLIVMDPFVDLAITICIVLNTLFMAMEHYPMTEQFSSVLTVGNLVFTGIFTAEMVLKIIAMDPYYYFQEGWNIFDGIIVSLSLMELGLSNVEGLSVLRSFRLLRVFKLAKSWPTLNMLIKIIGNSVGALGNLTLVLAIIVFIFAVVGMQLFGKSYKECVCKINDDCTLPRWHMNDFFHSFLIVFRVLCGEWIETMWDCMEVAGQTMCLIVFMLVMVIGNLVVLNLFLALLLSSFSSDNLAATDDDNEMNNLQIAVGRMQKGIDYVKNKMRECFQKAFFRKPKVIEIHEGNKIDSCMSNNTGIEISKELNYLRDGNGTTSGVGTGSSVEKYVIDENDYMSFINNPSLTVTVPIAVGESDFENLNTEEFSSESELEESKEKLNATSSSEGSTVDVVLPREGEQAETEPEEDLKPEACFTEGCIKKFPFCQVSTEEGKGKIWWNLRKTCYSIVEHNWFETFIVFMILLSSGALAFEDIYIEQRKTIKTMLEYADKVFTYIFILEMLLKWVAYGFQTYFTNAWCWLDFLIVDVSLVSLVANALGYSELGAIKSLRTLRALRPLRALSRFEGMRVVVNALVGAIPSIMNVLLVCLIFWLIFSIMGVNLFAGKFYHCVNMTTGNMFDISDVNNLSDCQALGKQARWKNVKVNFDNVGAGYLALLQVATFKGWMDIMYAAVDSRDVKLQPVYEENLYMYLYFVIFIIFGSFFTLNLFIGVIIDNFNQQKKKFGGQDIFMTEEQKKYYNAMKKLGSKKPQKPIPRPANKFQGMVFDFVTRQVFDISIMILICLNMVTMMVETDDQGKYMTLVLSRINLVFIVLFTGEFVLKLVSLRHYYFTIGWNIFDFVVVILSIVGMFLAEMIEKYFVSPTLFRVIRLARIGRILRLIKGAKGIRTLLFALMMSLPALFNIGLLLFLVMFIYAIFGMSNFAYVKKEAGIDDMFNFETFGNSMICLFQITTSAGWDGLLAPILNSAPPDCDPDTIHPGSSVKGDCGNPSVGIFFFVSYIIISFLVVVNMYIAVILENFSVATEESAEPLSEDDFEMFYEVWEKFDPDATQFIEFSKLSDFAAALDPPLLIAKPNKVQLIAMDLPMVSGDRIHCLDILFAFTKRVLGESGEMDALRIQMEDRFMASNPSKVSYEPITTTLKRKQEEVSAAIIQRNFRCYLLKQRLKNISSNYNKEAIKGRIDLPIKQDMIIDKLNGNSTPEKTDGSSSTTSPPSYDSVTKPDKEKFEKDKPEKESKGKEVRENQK
Measurement Protocol: SCN3A inhibitory activity in HEK cells stably expressing hSCN3A (whole-cell patch clamp / radiotracer efflux HTS)
Setup Conditions: HEK cells stably transfected with hSCN3A
Readout: IC50

Consider the following illustrative entries.
COCn1c(Cc2ccc(Cl)c(Cl)c2)nnc1-c1ccc(S(=O)(=O)Nc2nccs2)cc1	500 to 1000 nM
O=S(=O)(Nc1nccs1)c1ccc(-c2nc(Cc3ccc4c(c3)OCO4)c[nH]2)cc1	500 to 1000 nM
O=S(=O)(Nc1nccs1)c1ccc(-c2nc(Cc3ccc(F)c(F)c3)c[nH]2)cc1	100 to 500 nM

Moving on to another molecule below.
// IC50 value for O=S(=O)(Nc1nccs1)c1ccc(-c2nc(-c3ncc(C(F)(F)F)cc3Cl)n[nH]2)cc1F : 100 to 500 nM
